Parameter EC50: see the listing below.
System: VZV
Assay: Viral qPCR assay, VZV
Format: cell-based, varicella zoster virus
Details: Human alphaherpesvirus 3, 72 h, MeWo or MRC5 cells, 0.04-0.1 pfu/cell, growth medium, viral genome copies by qPCR
The response must be a number in nM with no trailing unit.

| MOLECULE | SYSTEM_TESTED | EC50 (nM) |
| --- | --- | --- |
| COc1nc(-c2cnn(C(F)F)c2)c(O[C@H]2CCN3C(=O)OC[C@@H]3C2)cc1C(=O)NCc1ccc(Cl)cc1 [Compound 4] | VZV | 141 |
| CCn1cc(-c2nc(OC)c(C(=O)NCc3ccc(Cl)cc3)cc2O[C@H]2CCN3C(=O)OC[C@@H]3C2)cn1 [Compound 31] | VZV | 102 |
| CN(C)CCOc1nc(-c2cnn(C(F)F)c2)c(O[C@H]2CCN3C(=O)OC[C@@H]3C2)cc1C(=O)NCc1ccc(Cl)cc1 [Compound 88] | VZV | 317 |

Which EC50 value belongs to COc1csc(-c2nc(OC)c(C(=O)NCc3ccc(Cl)cc3)cc2O[C@H]2CCN3C(=O)OC[C@@H]3C2)c1 [Compound 34] ? 1920

Which EC50 value belongs to COc1nc(-c2ccc3[nH]ccc3c2)c(O[C@H]2CCN3C(=O)OC[C@@H]3C2)cc1C(=O)NCc1ccc(Cl)cc1 [Compound 39] ? 1360

Which EC50 value belongs to CC(C)(O)COc1nc(-c2cnn(C(F)F)c2)c(O[C@H]2CCN3C(=O)OC[C@@H]3C2)cc1C(=O)NCc1ccc(Cl)cc1 [Compound 86] ? 232

Which EC50 value belongs to COc1nc(-c2cnc3[nH]ccc3c2)c(O[C@H]2CCN3C(=O)OC[C@@H]3C2)cc1C(=O)NCc1ccc(Cl)cc1 [Compound 41] ? 418

Which EC50 value belongs to COc1nc(CC(C)(C)N)c(O[C@H]2CCN3C(=O)OC[C@@H]3C2)cc1C(=O)NCc1ccc(Cl)cc1 [Compound 81] ? 3650

Which EC50 value belongs to COc1nc(-c2ccc(C)s2)c(O[C@H]2CCN3C(=O)OC[C@@H]3C2)cc1C(=O)NCc1ccc(Cl)cc1 [Compound 14] ? 2570

Which EC50 value belongs to O=C1CC[C@@H](COc2nc(-c3cnn(C(F)F)c3)c(O[C@H]3CCN4C(=O)OC[C@@H]4C3)cc2C(=O)NCc2ccc(Cl)cc2)N1 [Compound 99] ? 1310

Which EC50 value belongs to CC(C)(C#N)COc1nc(-c2cnn(C(F)F)c2)c(O[C@H]2CCN3C(=O)OC[C@@H]3C2)cc1C(=O)NCc1ccc(Cl)cc1 [Compound 92] ? 417

Which EC50 value belongs to COc1nc(-c2nc(C)no2)c(O[C@H]2CCN3C(=O)OC[C@@H]3C2)cc1C(=O)NCc1ccc(Cl)cc1 [Compound 82] ? 103

Which EC50 value belongs to COc1nc(-c2cc(C)ns2)c(O[C@H]2CCN3C(=O)OC[C@@H]3C2)cc1C(=O)NCc1ccc(Cl)cc1 [Compound 7] ? 129

----------
Molecular target: Human cytomegalovirus DNA polymerase (Human cytomegalovirus)
Construct: made in house; host or cells: SF21 insect cells (baculovirus vector)
Sequence (P08546 whole entry): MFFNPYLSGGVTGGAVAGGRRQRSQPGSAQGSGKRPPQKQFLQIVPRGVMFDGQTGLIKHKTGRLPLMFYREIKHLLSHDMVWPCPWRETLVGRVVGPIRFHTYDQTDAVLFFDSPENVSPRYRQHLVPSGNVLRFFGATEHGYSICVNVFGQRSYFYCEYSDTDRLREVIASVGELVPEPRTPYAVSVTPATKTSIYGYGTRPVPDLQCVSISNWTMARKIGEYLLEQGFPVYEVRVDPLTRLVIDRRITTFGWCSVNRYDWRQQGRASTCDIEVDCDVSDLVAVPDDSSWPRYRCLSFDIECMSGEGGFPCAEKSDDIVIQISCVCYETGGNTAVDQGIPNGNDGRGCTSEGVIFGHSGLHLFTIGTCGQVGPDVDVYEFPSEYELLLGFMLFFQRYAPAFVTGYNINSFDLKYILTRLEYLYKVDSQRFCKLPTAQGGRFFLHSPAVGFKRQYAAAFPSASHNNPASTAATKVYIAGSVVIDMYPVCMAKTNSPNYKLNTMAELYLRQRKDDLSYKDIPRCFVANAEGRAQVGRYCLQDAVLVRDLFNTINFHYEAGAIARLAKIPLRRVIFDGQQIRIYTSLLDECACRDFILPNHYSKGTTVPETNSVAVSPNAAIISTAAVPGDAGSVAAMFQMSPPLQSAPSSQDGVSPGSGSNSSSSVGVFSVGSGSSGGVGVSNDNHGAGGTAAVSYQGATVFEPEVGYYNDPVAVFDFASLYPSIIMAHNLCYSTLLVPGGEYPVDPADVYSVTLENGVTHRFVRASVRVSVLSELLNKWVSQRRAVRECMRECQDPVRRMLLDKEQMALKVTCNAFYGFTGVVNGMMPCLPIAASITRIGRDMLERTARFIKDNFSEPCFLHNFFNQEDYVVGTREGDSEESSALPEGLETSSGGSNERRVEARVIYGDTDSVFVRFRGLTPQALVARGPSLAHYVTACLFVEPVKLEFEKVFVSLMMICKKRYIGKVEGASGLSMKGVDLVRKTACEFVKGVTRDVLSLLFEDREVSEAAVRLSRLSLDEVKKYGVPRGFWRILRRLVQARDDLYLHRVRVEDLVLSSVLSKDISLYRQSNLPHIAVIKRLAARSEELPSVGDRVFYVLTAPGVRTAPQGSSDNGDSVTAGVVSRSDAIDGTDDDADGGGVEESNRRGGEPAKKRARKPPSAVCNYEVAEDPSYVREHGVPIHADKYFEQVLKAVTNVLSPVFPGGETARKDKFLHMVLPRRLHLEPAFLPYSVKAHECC
Assay: CMV polymerase assay (AlphaLISA)
Format: biochemical
Settings: HCMV polymerase 0.2 nM; 30 min pre-incubation; 60 min at 37° C.; read-out: CMV (IC50)
MEASUREMENT_NAME: pIC50
Just so you know, pIC50 here is -log10 of the concentration in molar units; reply with that number alone.

# count of solved cases: 5
| COMPOUND | SYSTEM_TESTED | pIC50 |
| --- | --- | --- |
| COc1nc(C2CC2O)c(O[C@H]2CCN3C(=O)OC[C@@H]3C2)cc1C(=O)NCc1ccc(Cl)cc1 (single isomer, unassigned) [Compound 80] | Human cytomegalovirus DNA polymerase (Human cytomegalovirus) | 7.00 |
| COc1nc(C2CC2O)c(O[C@H]2CCN3C(=O)OC[C@@H]3C2)cc1C(=O)NCc1ccc(Cl)cc1 (single isomer, unassigned) [Compound 78] | Human cytomegalovirus DNA polymerase (Human cytomegalovirus) | 7.31 |
| COc1nc(-c2ccnnc2)c(O[C@H]2CCN3C(=O)OC[C@@H]3C2)cc1C(=O)NCc1ccc(Cl)cc1 [Compound 37] | Human cytomegalovirus DNA polymerase (Human cytomegalovirus) | 8.06 |
| COc1nc(C)c(O[C@H]2CCN3C(=O)OC[C@@H]3C2)cc1C(=O)NCc1ccc(Cl)cc1 [Compound 8] | Human cytomegalovirus DNA polymerase (Human cytomegalovirus) | 7.42 |
| COc1nc(-c2cc[nH]c2)c(O[C@H]2CCN3C(=O)OC[C@@H]3C2)cc1C(=O)NCc1ccc(Cl)cc1 [Compound 28] | Human cytomegalovirus DNA polymerase (Human cytomegalovirus) | 8.27 |

Which pIC50 value belongs to O=C(NCc1ccc(Cl)cc1)c1cc(O[C@H]2CCN3C(=O)OC[C@@H]3C2)c(-c2cnn(C(F)F)c2)nc1OCCF [Compound 89] ? 7.92

Which pIC50 value belongs to COc1nc(-c2cnco2)c(O[C@H]2CCN3C(=O)OC[C@@H]3C2)cc1C(=O)NCc1ccc(Cl)cc1 [Compound 6] ? 8.98

Which pIC50 value belongs to COc1nc(-c2cnn(C(C)(C)C)c2)c(O[C@H]2CCN3C(=O)OC[C@@H]3C2)cc1C(=O)NCc1ccc(Cl)cc1 [Compound 11] ? 7.69

Which pIC50 value belongs to COc1nc(-c2ccsc2)c(O[C@H]2CCN3C(=O)OC[C@@H]3C2)cc1C(=O)NCc1ccc(Cl)cc1 [Compound 21] ? 7.68

Which pIC50 value belongs to COc1nc(N2CC(F)(F)C2)c(O[C@H]2CCN3C(=O)OC[C@@H]3C2)cc1C(=O)NCc1ccc(Cl)cc1 [Compound 65] ? 7.79
